- System: HS 578T breast
- method-summary: NCI-60 one-dose screen, 48 h (100 = growth as untreated, 0 = no growth, -100 = all killed)
- condition-summary: 10 µM unless noted
The panel holds about 83,000 compounds, 20% with a hit somewhere; the sample as a whole holds those more often. The source made the active and inactive calls. Rule for the calls: active = growth percent below 10; inactive = the rest.
Recorded growth values for a group of molecules are listed next.

> print(dat)
                                   molecule         reported
1  COc1cc(-c2c3sc(=O)[nH]c3nc3c2c(=O)[nH]n3C(C)C)cc2c1OCO2  105% (inactive)

Query: Fill in: growth of CN(C)c1ccc(C2Nc3ccccc3-n3cccc32)cc1 (stereo not drawn) is ___
Reply: 95.5% (inactive)

Query: growth lookup needed for COc1cc(C(=O)/C=C/c2c(C)n([O-])c3ccc(C)cc3[n+]2=O)cc(OC)c1OC , thanks.
Reply: 52.8% (inactive)

* * *

- Test system: HCT-15 colon
- method-summary: NCI-60 one-dose screen, 48 h (100 = growth as untreated, 0 = no growth, -100 = all killed)
- condition-summary: 10 µM unless noted
This is part of a sample that, as a whole, favours compounds with a hit. Of some 83,000 tested, about 20% had one in any assay.
Classes (growth): bucket 1 (below 20%), bucket 2 (20% to below 60%), bucket 3 (60% or more)

Known results for compounds:
> print(dat)
                                   compound  label.value
1  COc1ccccc1-c1ccc2c(N)c(C(=O)c3ccc4c(c3)OCO4)sc2n1     bucket 2
2  COc1ccc2nc3cc(Cl)ccc3c(N3CCN(c4ccnc(N5CCN(C)CC5)n4)CC3)c2c1     bucket 1
3  CN1CCN(Cc2ccc(NC(=O)c3[nH]ncc3Nc3ncnc4[nH]ccc34)cc2)CC1     bucket 1
4  CCN(CC)CC(O)c1cc(-c2ccc(Cl)cc2)nc2c(C)c(Cl)ccc12 (centres undefined)     bucket 1
5  CCN(CC)c1ccc(/C=C/C2=[N+](C)c3ccccc3C2(C)C)cc1     bucket 2

Query: Kindly identify the class of CCCCCCCCCCCCCCCCNCCC[C@@H](C)[C@H]1CC[C@H]2[C@@H]3[C@H](OCCCN)C[C@@H]4C[C@H](OCCCN)CC[C@]4(C)[C@H]3C[C@H](OCCCN)[C@]12C .
Reply: bucket 1

Query: Band of O=C1/C(=C/c2ccc(F)cc2)CN(C(=O)CCN2CCC(=NO)CC2)C/C1=C\c1ccc(F)cc1 ?
Reply: bucket 1

Query: Lab log: CCOc1ccc(Nc2nc(-c3c(C)nc4ncccn34)cs2)cc1 — assign growth category
Reply: bucket 1

* * *

- Test system: HCT-116 colon
- method-summary: NCI-60 one-dose screen, 48 h (100 = growth as untreated, 0 = no growth, -100 = all killed)
- condition-summary: 10 µM unless noted
About 83,000 compounds went through this panel and 20% of them were active in at least one assay; those are over-represented in the sample as a whole.
Each entry falls into one class according to its growth; the ranges are b0 (below 50%), b1 (50% to below 90%), b2 (90% or more)

Known results for molecules:
> print(dat)
                                   molecule  label.value
1  CCOc1ccc(Nc2nc(-c3c(C)nc4ncccn34)cs2)cc1           b0
2  CCOC(=O)c1cnc2ccc(Br)cc2c1Nc1cccc(S(=O)(=O)NC)c1           b1
3  COc1cc(/C=C2\CN(C(=O)CCN3CCC(=NO)CC3)C/C(=C\c3cc(OC)c(OC)c(OC)c3)C2=O)cc(OC)c1OC           b0

Query: Entry CCCCCCNC(=O)Oc1ccc(/C(=C(\C)c2ccccc2)c2ccc(OCCN(CC)CC)cc2)cc1 belongs to which category?
Reply: b0

The reported numbers originate from PubChem BioAssay (NCI).
